- measured-on: isocitrate dehydrogenase 1 (IDH1) (Homo sapiens, UniProt O75874, D273L/R132H)
- Sequence (O75874 2-414 R132H/D273L): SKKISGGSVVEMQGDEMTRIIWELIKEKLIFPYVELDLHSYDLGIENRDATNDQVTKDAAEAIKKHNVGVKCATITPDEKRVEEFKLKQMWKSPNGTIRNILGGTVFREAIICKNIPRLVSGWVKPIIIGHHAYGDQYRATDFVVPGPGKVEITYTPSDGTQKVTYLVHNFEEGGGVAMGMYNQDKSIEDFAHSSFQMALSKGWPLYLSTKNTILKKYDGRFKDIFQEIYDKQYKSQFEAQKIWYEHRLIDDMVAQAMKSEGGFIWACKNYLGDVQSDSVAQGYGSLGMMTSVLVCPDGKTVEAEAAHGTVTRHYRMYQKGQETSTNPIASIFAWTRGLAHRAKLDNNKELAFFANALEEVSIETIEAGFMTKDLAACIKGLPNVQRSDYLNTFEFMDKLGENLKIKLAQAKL
- procedure-text: isothermal titration calorimetry
measured-metric: Kd
Provide a numeric answer, followed by its unit.

## Input Request the reported Kd associated with Cc1ccccc1C(C(=O)NC1CCCCC1)N(C(=O)Cn1ccnc1C)c1cccc(F)c1 (stereo not shown)
## Output 3.3 µM
